# Protocol details: Plasma protein binding, rapid equilibrium dialysis
# Assay type: in vitro ADME, human
# Condition: plasma binding, % Bound, human plasma, 10 μM
# Source text: This assay determines plasma protein binding of a drug/compound and free drug concentration in plasma using rapid equilibrium dialysis, which allow the aqueous component of plasma containing the free drug/compound through a dialysis membrane (MWCO˜8,000). […] Sample preparation for plasma protein binding was modified from Waters' method. […] The test compound concentrations were quantified in both buffer and plasma chambers via peak areas relative to the internal standard. […]
Property measured: Human (%)
Kindly answer with a numeric value in %, unit omitted.

Hello, please tell me recorded Human for this one: Cc1ccc(NC(=O)N[C@@H](Cc2cccc(C)c2)C(=O)N[C@H]2COC(=O)[C@@H]3C[C@H](C)CN3C(=O)[C@H](C)NC(=O)[C@@H]3CCCCN3C(=O)[C@@H]3CCCN3C2=O)cc1 (stereo in doubt)
72.9

---

# Protocol details: Solubility determination
# Assay type: physicochemical
# Condition: 22 °C, aqueous buffer, kinetic from dmso stock
Numbered stars: 1 amine (or outer) side, 2 acyl side, 3 side chain; on linkers, the order of the positions; unused ones are H or OH. Bridge positions count the residues as written; N and C are the ends. Square brackets hold non-standard residues; d marks the D form. Peptide text beside a SMILES is read from it. * marks the point of attachment. ξ: configuration not given here. Piperazine(2S-CO,4-Me) = CN1CCN[C@H](C(=O)O)C1; Morpholine(3S-CO) = O=C(O)[C@@H]1COCCN1; Phe(3-Me) = Cc1cccc(C[C@H](N)C(=O)O)c1; NH(4-Cl-2-F-phenyl) = Fc1cc(Cl)ccc1N*; Pro(4R-Me) = C[C@H]1CN[C@H](C(=O)O)C1; Hyp = O=C(O)[C@@H]1C[C@@H](O)CN1; ξNMeThr = CNC(C(=O)O)[C@@H](C)O; aThr = C[C@H](O)[C@H](N)C(=O)O; X3 = c1cc2c(cc1N*)OCCO2; CO = O=C([*:1])[*:2]; X2 = Fc1cc(N*)ccc1Cl
Overview of recorded solubility kinetic at 10 min for various compounds
Kindly answer with a numeric value in µM, unit omitted.

* Cc1cccc(C[C@H](NC(=O)Nc2ccc(Cl)c(F)c2)C(=O)N[C@H]2COC(=O)[C@@H]3C[C@@H](C)CN3C(=O)[C@H](C)NC(=O)[C@@H]3CN(C)CCN3C(=O)[C@@H]3CCCN3C2=O)c1 [Compound 14] ({X2-CO}-[Phe(3-Me)]SP[Piperazine(2S-CO,4-Me)]A[Pro(4R-Me)]; ester 2-C) | 39.3
* Cc1cccc(C[C@H](NC(=O)Nc2ccc(Cl)cc2F)C(=O)N[C@@H]2C(=O)N3CCC[C@H]3C(=O)N(C)C([C@@H](C)O)C(=O)N[C@@H](C)C(=O)N3C[C@H](C)C[C@H]3C(=O)O[C@H]2C)c1 (stereo partly drawn) [Compound 5] ({NH(4-Cl-2-F-phenyl)-CO}-[Phe(3-Me)][aThr]P[ξNMeThr]A[Pro(4R-Me)]; ester 2-C) | 17.4

// next entry
Hello, please tell me recorded solubility kinetic at 10 min for this one: Cc1cccc(C[C@H](NC(=O)Nc2ccc3c(c2)OCCO3)C(=O)N[C@@H]2C(=O)N3C[C@H](O)C[C@H]3C(=O)N3CCOC[C@H]3C(=O)N[C@@H](C)C(=O)N3C[C@H](C)C[C@H]3C(=O)O[C@H]2C)c1 [Compound 27] ({X3-CO}-[Phe(3-Me)][aThr][Hyp][Morpholine(3S-CO)]A[Pro(4R-Me)]; ester 2-C)
45.6
